System: human red blood cells (hRBCs)
Conditions: red cells of human, 2 h
Peptide text beside a SMILES is read from it.
Assay Endpoint: HC50 (µg/mL)
Quick note: give the figure in µg/mL, leave out the unit.

Query block: Name the reported HC50 value associated with the compound N=C(N)NCCC[C@@H]1NC(=O)[C@H](CCCNC(=N)N)NC(=O)[C@H](CCCNC(=N)N)NC(=O)[C@H](Cc2c[nH]c3ccccc23)NC(=O)[C@H](Cc2c[nH]c3ccccc23)NC(=O)[C@H](Cc2c[nH]c3ccccc23)NC(=O)[C@H](Cc2c[nH]c3ccccc23)NC(=O)[C@H](Cc2c[nH]c3ccccc23)NC(=O)[C@H](CCCNC(=N)N)NC1=O [4b, [R4W5]]
Result block: 100

Query block: Name the reported HC50 value associated with the compound N=C(N)NCCC[C@@H]1NC(=O)[C@H](CCCNC(=N)N)NC(=O)[C@H](CCCNC(=N)N)NC(=O)[C@H](Cc2c[nH]c3ccccc23)NC(=O)[C@H](Cc2c[nH]c3ccccc23)NC(=O)[C@H](Cc2c[nH]c3ccccc23)NC(=O)[C@H](Cc2c[nH]c3ccccc23)NC(=O)[C@H](Cc2c[nH]c3ccccc23)NC(=O)[C@H](Cc2c[nH]c3ccccc23)NC(=O)[C@H](CCCNC(=N)N)NC(=O)[C@H](CCCNC(=N)N)NC1=O [5c, [R5W6]] (cyclo(RRRRRWWWWWW))
Result block: 140

Query block: Name the reported HC50 value associated with the compound N=C(N)NCCC[C@@H]1NC(=O)[C@H](CCCNC(=N)N)NC(=O)[C@H](CCCNC(=N)N)NC(=O)[C@H](CCCNC(=N)N)NC(=O)[C@H](Cc2c[nH]c3ccccc23)NC(=O)[C@H](Cc2c[nH]c3ccccc23)NC(=O)[C@H](Cc2c[nH]c3ccccc23)NC(=O)[C@H](Cc2c[nH]c3ccccc23)NC(=O)[C@H](Cc2c[nH]c3ccccc23)NC(=O)[C@H](CCCNC(=N)N)NC(=O)[C@H](CCCNC(=N)N)NC1=O [6b, [R6W5]] (cyclo(RRRRRRWWWWW))
Result block: 255

Query block: Name the reported HC50 value associated with the compound N=C(N)NCCC[C@@H]1NC(=O)[C@H](CCCNC(=N)N)NC(=O)[C@H](CCCNC(=N)N)NC(=O)[C@H](CCCNC(=N)N)NC(=O)[C@H](Cc2c[nH]c3ccccc23)NC(=O)[C@H](Cc2c[nH]c3ccccc23)NC(=O)[C@H](Cc2c[nH]c3ccccc23)NC(=O)[C@H](Cc2c[nH]c3ccccc23)NC(=O)[C@H](CCCNC(=N)N)NC(=O)[C@H](CCCNC(=N)N)NC(=O)[C@H](CCCNC(=N)N)NC1=O [7a, [R7W4]] (cyclo(RRRRRRRWWWW))
Result block: 190

Query block: Name the reported HC50 value associated with the compound N=C(N)NCCC[C@@H]1NC(=O)[C@H](CCCNC(=N)N)NC(=O)[C@H](CCCNC(=N)N)NC(=O)[C@H](Cc2c[nH]c3ccccc23)NC(=O)[C@H](Cc2c[nH]c3ccccc23)NC(=O)[C@H](Cc2c[nH]c3ccccc23)NC(=O)[C@H](Cc2c[nH]c3ccccc23)NC(=O)[C@H](Cc2c[nH]c3ccccc23)NC(=O)[C@H](CCCNC(=N)N)NC(=O)[C@H](CCCNC(=N)N)NC1=O [5b, [R5W5]]
Result block: 230
